The values you see were collected from patent US20230148214A1.

biological target: LRRK2 WT (Homo sapiens, UniProt Q5S007); construct: purchased Life Technologies PR8604B; experiment: LRRK2 Kinase Activity Assay (LanthaScreen TR-FRET), wild type; type: biochemical; conditions: recombinant wild type LRRK2, 25 μM ATP, 400 nM LRRKtide, 60 min; class symbols
Sequence (Q5S007 whole entry): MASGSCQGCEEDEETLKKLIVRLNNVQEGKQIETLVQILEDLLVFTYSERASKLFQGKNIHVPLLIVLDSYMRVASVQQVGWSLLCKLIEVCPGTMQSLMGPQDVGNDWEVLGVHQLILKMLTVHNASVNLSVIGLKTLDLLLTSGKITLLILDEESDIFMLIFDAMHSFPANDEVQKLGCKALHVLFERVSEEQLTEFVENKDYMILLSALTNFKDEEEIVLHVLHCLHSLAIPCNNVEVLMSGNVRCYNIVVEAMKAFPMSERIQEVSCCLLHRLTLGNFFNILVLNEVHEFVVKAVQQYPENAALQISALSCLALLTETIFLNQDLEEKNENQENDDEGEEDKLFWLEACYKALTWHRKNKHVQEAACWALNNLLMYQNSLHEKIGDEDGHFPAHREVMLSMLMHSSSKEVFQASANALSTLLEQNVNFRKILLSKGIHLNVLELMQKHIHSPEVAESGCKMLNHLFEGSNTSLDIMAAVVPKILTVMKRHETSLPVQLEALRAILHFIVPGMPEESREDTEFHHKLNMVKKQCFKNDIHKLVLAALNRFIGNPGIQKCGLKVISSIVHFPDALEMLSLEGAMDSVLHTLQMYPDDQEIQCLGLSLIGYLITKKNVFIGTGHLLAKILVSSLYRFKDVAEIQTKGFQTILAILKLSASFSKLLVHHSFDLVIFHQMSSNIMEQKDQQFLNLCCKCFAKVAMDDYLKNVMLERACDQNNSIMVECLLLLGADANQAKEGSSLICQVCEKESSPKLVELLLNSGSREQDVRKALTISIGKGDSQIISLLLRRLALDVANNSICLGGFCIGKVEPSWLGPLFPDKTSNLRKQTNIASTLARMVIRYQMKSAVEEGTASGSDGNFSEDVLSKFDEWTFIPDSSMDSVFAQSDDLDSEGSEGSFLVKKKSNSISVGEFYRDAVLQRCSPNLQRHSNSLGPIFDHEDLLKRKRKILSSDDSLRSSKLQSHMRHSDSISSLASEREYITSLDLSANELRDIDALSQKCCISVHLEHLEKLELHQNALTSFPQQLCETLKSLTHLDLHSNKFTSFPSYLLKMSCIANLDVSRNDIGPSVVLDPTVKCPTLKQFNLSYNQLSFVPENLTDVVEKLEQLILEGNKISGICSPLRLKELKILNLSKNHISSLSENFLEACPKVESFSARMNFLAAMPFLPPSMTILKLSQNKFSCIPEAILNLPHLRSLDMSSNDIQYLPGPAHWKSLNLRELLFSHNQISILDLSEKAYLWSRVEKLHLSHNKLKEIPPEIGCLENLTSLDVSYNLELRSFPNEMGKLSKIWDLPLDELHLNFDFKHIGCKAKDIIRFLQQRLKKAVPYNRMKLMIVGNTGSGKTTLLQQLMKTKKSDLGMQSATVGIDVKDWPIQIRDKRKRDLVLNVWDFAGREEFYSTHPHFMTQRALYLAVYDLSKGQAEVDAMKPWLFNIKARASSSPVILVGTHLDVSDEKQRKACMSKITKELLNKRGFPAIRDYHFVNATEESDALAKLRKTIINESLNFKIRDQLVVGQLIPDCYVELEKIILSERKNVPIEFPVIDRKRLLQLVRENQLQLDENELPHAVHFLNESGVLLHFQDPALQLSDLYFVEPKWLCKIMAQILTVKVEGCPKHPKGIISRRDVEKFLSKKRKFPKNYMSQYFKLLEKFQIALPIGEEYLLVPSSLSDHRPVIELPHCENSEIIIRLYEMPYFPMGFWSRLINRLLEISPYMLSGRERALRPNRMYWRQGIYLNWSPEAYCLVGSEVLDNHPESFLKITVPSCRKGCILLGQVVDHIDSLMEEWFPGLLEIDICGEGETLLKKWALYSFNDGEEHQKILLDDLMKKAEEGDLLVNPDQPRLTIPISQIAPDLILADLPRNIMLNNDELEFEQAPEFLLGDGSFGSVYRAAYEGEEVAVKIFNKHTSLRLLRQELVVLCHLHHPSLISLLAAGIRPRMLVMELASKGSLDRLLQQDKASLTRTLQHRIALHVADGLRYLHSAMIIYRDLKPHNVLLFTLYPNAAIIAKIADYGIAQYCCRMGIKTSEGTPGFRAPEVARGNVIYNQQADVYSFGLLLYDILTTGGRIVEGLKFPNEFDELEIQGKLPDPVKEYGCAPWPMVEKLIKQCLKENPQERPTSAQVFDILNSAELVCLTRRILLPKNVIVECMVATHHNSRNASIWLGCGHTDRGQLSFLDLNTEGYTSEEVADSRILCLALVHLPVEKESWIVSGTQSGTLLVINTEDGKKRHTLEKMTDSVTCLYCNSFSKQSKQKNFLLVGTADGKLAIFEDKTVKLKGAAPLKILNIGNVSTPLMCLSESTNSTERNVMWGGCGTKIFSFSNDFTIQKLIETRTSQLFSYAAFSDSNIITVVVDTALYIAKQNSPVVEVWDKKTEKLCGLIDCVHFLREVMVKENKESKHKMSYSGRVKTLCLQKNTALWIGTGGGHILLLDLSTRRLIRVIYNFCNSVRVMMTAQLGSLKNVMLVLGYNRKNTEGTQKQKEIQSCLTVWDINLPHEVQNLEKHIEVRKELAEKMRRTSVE
pIC50: −log10 of the molar value.
Field: pIC50. Provide a value for each of the compounds that follow.

Give its pIC50 value. Item: N#Cc1cc2c(cc1F)[C@@H](Oc1ccc3[nH]nc(-c4cnco4)c3c1)CC2 (single isomer, unassigned) [Example 23, enantiomer 2]
> 7.00

Please report the recorded pIC50 for N#Cc1cnc2c(c1)CCC[C@@H]2Oc1ccc2[nH]nc(-c3cnn(C(F)F)c3)c2c1 (single isomer, unassigned) [Example 141, enantiomer 2] .
> 7.00

Requested read-out: pIC50. Entry: N#Cc1cnc2c(c1)CCC[C@@H]2Oc1ccc2[nH]nc(-c3cnco3)c2c1 (single isomer, unassigned) [Example 16, enantiomer 1]
> 7.00

// query pIC50 value for entry N#Cc1ccc2c(c1)CCC2Nc1ccc2[nH]nc(-c3ccoc3)c2c1 (stereo not drawn) [Example 10]
6.00 to 7.00

# input compound: N#Cc1cc2c(cn1)[C@H](Oc1ccc3[nH]nc(-c4cnco4)c3c1)CCC2 (single isomer, unassigned) [Example 122, enantiomer 1] ; wanted: its pIC50
6.00 to 7.00

Please look up its pIC50: Cc1c(C#N)c(Cl)nc2c1CCC[C@@H]2Oc1ccc2[nH]nc(C3CC3)c2c1 (single isomer, unassigned) [184, enantiomer 1]
> 7.00

====

Could you please report measured pIC50 for the items listed next?
molecular target: LRRK2 WT (Homo sapiens, UniProt Q5S007); construct: purchased Life Technologies PR8604B; experiment: LRRK2 Kinase Activity Assay (LanthaScreen TR-FRET), wild type; format: biochemical; conditions: recombinant wild type LRRK2, 25 μM ATP, 400 nM LRRKtide, 60 min; class symbols
pIC50: −log10 of the molar value.

GET /values?readout=pIC50&system=LRRK2 WT (Homo sapiens, UniProt Q5S007)&item= N#Cc1ccc2c(c1)CC[C@@H]2Nc1ccc2[nH]nc(-c3cnn(C(F)F)c3)c2c1 (single isomer, unassigned) [Example 12, enantiomer 1]
> 7.00

Under LRRK2 WT (Homo sapiens, UniProt Q5S007): pIC50 value of N#Cc1cc2c(nc1Cl)[C@@H](Oc1ccc3[nH]nc(C4CC4)c3c1)CCC2 (single isomer, unassigned) [181, enantiomer 1] ?
> 7.00

Form: Entry = CONC(=O)c1cccc(-c2n[nH]c3ccc(N[C@H]4CCCc5cc(C#N)ccc54)cc23)c1 (single isomer, unassigned) [Example 69] | System = LRRK2 WT (Homo sapiens, UniProt Q5S007) | pIC50 = ____
> 7.00

Form: Entry = N#Cc1cc2c(nc1Cl)[C@@H](Oc1ccc3[nH]nc(C4CC4)c3c1)CCC2 (single isomer, unassigned) [181, enantiomer 2] | System = LRRK2 WT (Homo sapiens, UniProt Q5S007) | pIC50 = ____
6.00 to 7.00

Request - read-out pIC50 | tested on LRRK2 WT (Homo sapiens, UniProt Q5S007) | molecule N#Cc1cc2c(nc1Cl)[C@@H](Oc1ccc3[nH]nc(-c4cnoc4)c3c1)CCC2 (single isomer, unassigned) [178, enantiomer 1]
> 7.00

Provide value of pIC50 for this record tested with LRRK2 WT (Homo sapiens, UniProt Q5S007): N#Cc1ccc2c(c1)CCC[C@@H]2Nc1ccc2[nH]nc(-c3ccc4[nH]ccc4c3)c2c1 (single isomer, unassigned) [Example 78]
6.00 to 7.00

====

target: LRRK2 G2019S (Homo sapiens, UniProt Q5S007, G2019S); experiment: LRRK2 Kinase Activity Assay (LanthaScreen TR-FRET), G2019S; settings: recombinant G2019S-LRRK2, 25 μM ATP, 400 nM LRRKtide, 60 min; class symbols
Sequence (Q5S007 whole entry G2019S): as the sequence (Q5S007 whole entry) above, with G2019S counted along it
Please provide measured IC50 for the entries that follow.

Look up IC50: N#Cc1ccc2c(c1)CC[C@H]2Oc1ccc2[nH]nc(-c3cnco3)c2n1 (single isomer, unassigned) [Example 31, enantiomer 2]
< 100 nM

If you can, please state the reported IC50 value of N#Cc1cnc2c(c1)CCC[C@@H]2Oc1ccc2[nH]nc(-c3cnccn3)c2c1 (single isomer, unassigned) [Example 161, enantiomer 2] .
< 100 nM

Return reported IC50; argument: N#Cc1ccc2c(n1)CCC[C@@H]2Oc1ccc2[nH]nc(I)c2c1 (single isomer, unassigned) [Example 135, enantiomer 1]
< 100 nM

So what's the measured IC50 for this one? Cc1c(C#N)c(Cl)nc2c1CCC[C@@H]2Nc1ccc2[nH]nc(C3CC3)c2c1 (single isomer, unassigned) [183, enantiomer 1]
100 to 1000 nM

Entry N#Cc1cc2c(nc1Cl)[C@@H](Oc1ccc3[nH]nc(C4CC4)c3c1)CCC2 (single isomer, unassigned) [181, enantiomer 1] : reported IC50 = ?
< 100 nM

Entry N#Cc1ccc2c(c1)CC[C@H]2Nc1ccc2[nH]nc(I)c2c1 (single isomer, unassigned) [Example 128, enantiomer 2] : reported IC50 = ?
< 100 nM

====

biological target: LRRK2 G2019S (Homo sapiens, UniProt Q5S007, G2019S); assay: LRRK2 Kinase Activity Assay (LanthaScreen TR-FRET), G2019S; details: recombinant G2019S-LRRK2, 25 μM ATP, 400 nM LRRKtide, 60 min; class symbols
pIC50: −log10 of the molar value.
Please go through the items and note down their pIC50.

I am curious: what pIC50 value has been reported for N#Cc1ccc2c(c1)CCC[C@@H]2Nc1ccc2[nH]nc(C3=CCCCC3)c2c1 (single isomer, unassigned) [Example 54] ?
6.00 to 7.00

Record request: pIC50 value, item CN(C)C(=O)c1cccc(-c2n[nH]c3ccc(N[C@H]4CCCc5cc(C#N)ccc54)cc23)c1 (single isomer, unassigned) [Example 86]
> 7.00

Find the recorded pIC50 belonging to N#Cc1ccc2c(c1)CCC[C@@H]2Nc1ccc2[nH]nc(-c3cncs3)c2c1 (single isomer, unassigned) [Example 44] and report it.
> 7.00

What does the data say about its pIC50? Entry: [2H][C@]1(Nc2ccc3[nH]nc(-c4cnco4)c3c2)CCCc2cc(C#N)cnc21 (single isomer, unassigned) [Example 162, enantiomer 1]
6.00 to 7.00

Request the reported pIC50 associated with COc1c(C#N)ccc2c1CCC[C@@H]2Nc1ccc2[nH]nc(-c3cnco3)c2c1 (single isomer, unassigned) [Example 101, enantiomer 1]
> 7.00

Returns the measured pIC50 for the input compound. Input: Cc1n[nH]c2ccc(O[C@H]3CCCc4cc(C#N)ccc43)cc12 (single isomer, unassigned) [Example 19, enantiomer 2]
> 7.00

Value lookup for pIC50; key = Cc1ncc(-c2n[nH]c3ccc(O[C@H]4CCc5c4ccc(C#N)c5F)cc23)o1 (single isomer, unassigned) [Example 156, enantiomer 1]
> 7.00

Consider the compound shown here: N#Cc1ccc2c(c1)CCC[C@@H]2Nc1ccc2[nH]nc(-c3ccn[nH]3)c2c1 (single isomer, unassigned) [Example 157, enantiomer 2] What is its recorded pIC50?
> 7.00

Please give the measured pIC50 for this compound: CCc1cc(-c2n[nH]c3ccc(N[C@H]4CCCc5cc(C#N)ccc54)cc23)ccn1 (single isomer, unassigned) [Example 116, enantiomer 1]
> 7.00

Reported pIC50, compound N#Cc1cc2c(nc1Cl)[C@@H](Oc1ccc3[nH]nc(-c4cnco4)c3c1)CC2 (single isomer, unassigned) [Example 171, enantiomer 1] : ____
> 7.00

// lookup pIC50 for Cc1cc2c(cc1C#N)CC[C@H]2Oc1ccc2[nH]nc(-c3cnco3)c2c1 (single isomer, unassigned) [Example 29, enantiomer 1]
> 7.00

Need pIC50 of Cn1ccc(-c2n[nH]c3ccc(N[C@H]4CCCc5cc(C#N)cnc54)cc23)c1 (single isomer, unassigned) [Example 149, enantiomer 2] , thanks.
> 7.00

====

Please provide measured IC50 for the entries that follow.
target: LRRK2 WT (Homo sapiens, UniProt Q5S007); construct: purchased Life Technologies PR8604B; test: LRRK2 Kinase Activity Assay (LanthaScreen TR-FRET), wild type; format: biochemical; conditions: recombinant wild type LRRK2, 25 μM ATP, 400 nM LRRKtide, 60 min; class symbols

What does the record list as IC50 for N#Cc1ccc2c(c1)CC[C@@H]2Oc1cc2c(-c3cnco3)n[nH]c2cn1 (single isomer, unassigned) [Example 20, enantiomer 1] ?
< 0.1 µM

Query: IC50; subject: N#Cc1ccc2c(c1F)CC(F)(F)[C@@H]2Nc1ccc2[nH]nc(-c3cnco3)c2c1 (single isomer, unassigned) [Example 151, enantiomer 1]
0.1 to 1 µM

Consider the molecule shown here: COc1nc2c(cc1C#N)CCC[C@@H]2Nc1ccc2[nH]nc(-c3cnco3)c2c1 (single isomer, unassigned) [Example 102, enantiomer 1] What is its recorded IC50?
< 0.1 µM

Which IC50 is reported for this molecule? N#Cc1ccc2c(c1)CCC[C@@H]2Nc1ccc2[nH]nc(/C=C/c3ccccc3)c2c1 (single isomer, unassigned)
< 0.1 µM

Look at this molecule and give its reported IC50. COc1c(C#N)ccc2c1CCC[C@@H]2Nc1ccc2[nH]nc(-c3cnco3)c2c1 (single isomer, unassigned) [Example 101, enantiomer 1]
< 0.1 µM

Any idea what its IC50 is? The molecule is N#Cc1nc2c(o1)CCC[C@@H]2Nc1ccc2[nH]nc(-c3cnco3)c2c1 (single isomer, unassigned) [Example 35, enantiomer 1]
< 0.1 µM
